Entry source: ChEMBL document CHEMBL4177704

Property: Ratio CC50/IC50; scope: individual compounds
- test.description: Selectivity index, ratio of CC50 for human TZM-bl cells to IC50 for HIV-1 3B infected in human TZM-bl cells
- Format: toxicity, cell-based
Write the number on its own, no unit after it.

// known answers, use as guide
[[record]]
compound = "Cc1cc2c(c(O)c1-c1c(C)cc3c(c1O)/C(=C/N[C@@H]1[C@@H](O)[C@H](O)[C@@H](CO)O[C@H]1O)C(=O)C(O)=C3C(C)C)/C(=C/N[C@@H]1[C@@H](O)[C@H](O)[C@@H](CO)O[C@H]1O)C(=O)C(O)=C2C(C)C (stereo in doubt; (+)-1b)"
observation_type = "Ratio CC50/IC50"
data_value = 4.3

[[record]]
compound = "Cc1cc2c(c(O)c1-c1c(C)cc3c(c1O)/C(=C/NC(C)C(=O)NC(C)C(=O)[O-])C(=O)C(O)=C3C(C)C)/C(=C/NC(C)C(=O)NC(C)C(=O)[O-])C(=O)C(O)=C2C(C)C.[Na+].[Na+] (stereo in doubt; (+)-3b)"
observation_type = "Ratio CC50/IC50"
data_value = 10.22

[[record]]
compound = "Cc1cc2c(c(O)c1-c1c(C)cc3c(c1O)/C(=C/N[C@@H](CC(C)C)C(=O)[O-])C(=O)C(O)=C3C(C)C)/C(=C/N[C@@H](CC(C)C)C(=O)[O-])C(=O)C(O)=C2C(C)C.[Na+].[Na+] (stereo in doubt; (-)-10a)"
observation_type = "Ratio CC50/IC50"
data_value = 78.41


Continue with the next compound.
The compound Cc1cc2c(c(O)c1-c1c(C)cc3c(c1O)/C(=C/N[C@@H](CC(C)C)C(=O)[O-])C(=O)C(O)=C3C(C)C)/C(=C/N[C@@H](CC(C)C)C(=O)[O-])C(=O)C(O)=C2C(C)C.[Na+].[Na+] (stereo in doubt; (+)-10b) showed Ratio CC50/IC50 equal to 8.4
